Data credit: patent US8592455B2

pIC50 values recorded for Pim3 kinase (Homo sapiens (Human))
pIC50: −log10 of the molar value.

# molecule, target_entity, pIC50
rows = [
    ("N[C@H]1CCC[C@@H](c2ccncc2NC(=O)c2cccc(-c3c(F)cc(O)cc3F)n2)C1", "Pim3 kinase (Homo sapiens (Human))", 8.70),
    ("Nc1ccc(-c2c(F)cccc2F)nc1C(=O)Nc1cnccc1C1=CC(N)C(O)CC1 (stereo not shown)", "Pim3 kinase (Homo sapiens (Human))", 8.30),
    ("N[C@H]1CCC[C@@H](c2ccncc2NC(=O)c2ccc(F)c(-c3cc(F)cc(F)c3F)n2)C1", "Pim3 kinase (Homo sapiens (Human))", 7.92),
    ("C[C@H]1C[C@@H](c2ccncc2NC(=O)c2ccc(F)c(-c3cccc(C(F)(F)F)c3F)n2)C[C@@H](N)[C@@H]1O", "Pim3 kinase (Homo sapiens (Human))", 7.57),
    ("N[C@H]1CCC[C@@H](c2ccncc2NC(=O)c2ccc(F)c(-c3c(F)ccc(O)c3F)n2)C1", "Pim3 kinase (Homo sapiens (Human))", 9.00),
    ("N[C@H]1CCC[C@@H](c2ccncc2NC(=O)c2ccc(F)c(-c3cc(O)ccc3F)n2)C1", "Pim3 kinase (Homo sapiens (Human))", 8.52),
    ("C[C@@H]1C[C@H](N)C[C@H](c2ccncc2NC(=O)c2nc(-c3c(F)cccc3F)c(F)cc2N)C1 (stereo in doubt) [Example 133]", "Pim3 kinase (Homo sapiens (Human))", 8.15),
]

###

Entries with their measured pIC50, system Pim3 kinase (Homo sapiens (Human), UniProt Q86V86):
pIC50: −log10 of the molar value.

# compound_string, pIC50
records = [
    ("Cc1ccc(F)c(-c2cccc(C(=O)Nc3cnccc3[C@@H]3CCC[C@H](N)C3)n2)c1F", 8.70),
    ("N[C@H]1CCC[C@@H](c2ccncc2NC(=O)c2ccc(F)c(-c3cccc(F)c3F)n2)C1", 8.52),
    ("C[C@H]1C[C@@H](c2ccncc2NC(=O)c2ccc(F)c(-c3cc(O)ccc3F)n2)C[C@@H](N)[C@@H]1O", 8.05),
    ("N[C@H]1CCC[C@@H](c2ccncc2NC(=O)c2ccc(F)c(-c3ccc(O)cc3F)n2)C1", 8.70),
    ("CC1(C)C[C@H](N)C[C@H](c2ccncc2NC(=O)c2ccc(F)c(-c3ccc(O)cc3F)n2)C1", 8.22),
    ("C[C@H]1C[C@@H](c2ccncc2NC(=O)c2ccc(F)c(-c3c(F)cc(O)cc3F)n2)C[C@@H](N)[C@@H]1O", 8.70),
    ("C[C@H]1CN(c2ccncc2NC(=O)c2ccc(F)c(-c3ccncc3F)n2)C[C@@H](N)[C@@H]1O", 8.70),
]

###

The following molecules each carry a recorded IC50 for Pim3 kinase (Homo sapiens (Human)).
reported_endpoint: IC50 (nM)

# molecule, result_value
measured = [
    ("N[C@H]1CCC[C@@H](c2ccncc2NC(=O)c2ccc(F)c([C@H]3CC[C@@H](O)CC3)n2)C1 [Example 53]", 65),
    ("C[C@@H]1C[C@H](N)C[C@H](c2ccncc2NC(=O)c2cccc(-c3ccc(O)cc3F)n2)C1 [Example 37]", 5),
    ("CCc1ccc(F)c(-c2cccc(C(=O)Nc3cnccc3[C@@H]3C[C@H](C)C[C@H](N)C3)n2)c1F [Example 21]", 6),
    ("C[C@@H]1C[C@H](N)C[C@H](c2ccncc2NC(=O)c2nc(-c3ccc(O)cc3F)ccc2F)C1 [Example 39]", 12),
    ("Cc1ccc(F)c(-c2nc(C(=O)Nc3cnccc3[C@@H]3CCC[C@H](N)C3)ccc2F)c1F [Example 20]", 3),
    ("Cc1ccc(F)c(-c2cccc(C(=O)Nc3cnccc3[C@H]3C[C@@H](N)[C@@H](O)[C@@H](C)C3)n2)c1 [Example 74]", 4),
    ("N[C@@H]1C[C@H](c2ccncc2NC(=O)c2ccc(F)c(C3CCCCC3)n2)C[C@H](C(F)(F)F)C1 [Example 111]", 11),
    ("C[C@H]1CN(c2ccncc2NC(=O)c2ccc(F)c(-c3cccnc3)n2)C[C@@H](N)[C@@H]1O [Example 118]", 9),
    ("COc1cc(F)c(-c2nc(C(=O)Nc3cnccc3[C@H]3C[C@@H](N)CC(C)(C)C3)ccc2F)c(F)c1 [Example 123]", 2),
    ("Cc1ccc(F)c(-c2cccc(C(=O)Nc3cnccc3[C@H]3C[C@@H](N)[C@H](O)[C@@H](C)C3)n2)c1F [Example 30]", 4),
    ("C[C@@H]1C[C@H](N)C[C@H](c2ccncc2NC(=O)c2cccc(-c3c(F)cccc3F)n2)C1 [Example 63]", 2),
    ("Cc1ccc(F)c(-c2cccc(C(=O)Nc3cnccc3N3C[C@@H](N)[C@H](O)[C@@H](C)C3)n2)c1F [Example 13]", 3),
    ("Nc1ccc(-c2c(F)cccc2F)nc1C(=O)Nc1cnccc1C1=C[C@@H](N)[C@@H](O)CC1 [Example 93]", 5),
    ("CCCOc1ccc(F)c(-c2nc(C(=O)Nc3cnccc3[C@@H]3CC[C@H](O)[C@H](N)C3)ccc2F)c1 [Example 64]", 5),
    ("C[C@@H]1C[C@H](N)C[C@H](c2ccncc2NC(=O)c2ccc(F)c(-c3cc(F)ccc3F)n2)C1 [Example 61]", 4),
    ("N[C@H]1CCC[C@@H](c2ccncc2NC(=O)c2nc(-c3c(F)cccc3F)ccc2F)C1 [Example 80]", 7),
    ("C[C@H]1CN(c2ccncc2NC(=O)c2ccc(F)c(-c3ccncc3)n2)C[C@@H](N)[C@@H]1O [Example 120]", 7),
    ("CC1CC(c2ccncc2NC(=O)c2ccc(F)c(-c3c(F)cccc3F)n2)=CC(O)C1 (centres unmarked) [Example 137]", 7),
    ("Cc1ccc(F)c(-c2cccc(C(=O)Nc3cnccc3[C@H]3C[C@@H](N)C[C@@H](C(F)(F)F)C3)n2)c1 [Example 108]", 3),
    ("CC1(C)C[C@H](N)C[C@H](c2ccncc2NC(=O)c2ccc(F)c(-c3c(F)cccc3F)n2)C1 [Example 49]", 2),
    ("CCc1ccc(F)c(-c2cccc(C(=O)Nc3cnccc3[C@H]3C[C@@H](N)[C@H](O)[C@@H](C)C3)n2)c1F [Example 15]", 6),
    ("C[C@@H]1C[C@H](N)C[C@H](c2ccncc2NC(=O)c2ccc(F)c(-c3c(F)ccc(F)c3F)n2)C1 [Example 129]", 2),
    ("COc1ccc(F)c(-c2nc(C(=O)Nc3cnccc3[C@H]3C[C@@H](N)[C@H](O)[C@@H](C)C3)ccc2F)c1F [Example 47]", 3),
    ("C[C@H]1CN(c2ccncc2NC(=O)c2cccc(-c3ccccc3F)n2)C[C@@H](N)[C@@H]1O [Example 23]", 3),
    ("C[C@@H]1C[C@H](N)C[C@H](c2ccncc2NC(=O)c2cccc(-c3cc(O)ccc3F)n2)C1 [Example 35]", 3),
    ("C[C@@H]1C[C@H](N)C[C@H](c2ccncc2NC(=O)c2ccc(F)c(-c3ccc(O)cc3F)n2)C1 [Example 38]", 3),
    ("C[C@H]1C[C@@H](c2ccncc2NC(=O)c2nc(C3CCCCC3)ccc2N)C[C@@H](N)[C@@H]1O (stereo in doubt) [Example 90]", 12),
    ("N[C@@H]1C[C@H](c2ccncc2NC(=O)c2cccc(-c3ccccc3F)n2)CC[C@@H]1O [Example 83]", 5),
    ("C[C@H]1C[C@@H](c2ccncc2NC(=O)c2cccc(-c3c(F)cccc3F)n2)C[C@@H](N)[C@H]1O [Example 76]", 2),
]

###

Molecular target: Pim1 kinase (Homo sapiens (Human), UniProt P11309)
Sequence (P11309 whole entry): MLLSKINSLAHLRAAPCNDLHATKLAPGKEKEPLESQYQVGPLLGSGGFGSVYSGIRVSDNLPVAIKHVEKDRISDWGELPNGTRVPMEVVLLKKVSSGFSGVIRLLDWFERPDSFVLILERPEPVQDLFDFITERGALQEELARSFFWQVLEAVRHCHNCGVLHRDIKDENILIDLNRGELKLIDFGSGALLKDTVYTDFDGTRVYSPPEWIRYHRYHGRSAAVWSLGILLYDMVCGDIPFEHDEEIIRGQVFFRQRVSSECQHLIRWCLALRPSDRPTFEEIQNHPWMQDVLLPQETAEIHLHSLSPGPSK
Conditions: read-out: Pim1 IC50
Reported log10 of IC50 values for a set of compounds
reported_endpoint: log10 of IC50 (log10 of the value in nM)

# compound, log10 of IC50
measured = [
    ("C[C@H]1CN(c2ccncc2NC(=O)c2ccc(F)c(-c3ccncc3F)n2)C[C@@H](N)[C@@H]1O", 0.00),
    ("CCCOc1ccc(F)c(-c2nc(C(=O)Nc3cnccc3[C@@H]3CC[C@H](O)[C@H](N)C3)ccc2F)c1", 0.30),
    ("C[C@@H]1C[C@H](N)C[C@H](c2ccncc2NC(=O)c2nc(-c3ccc(O)cc3F)ccc2F)C1", 0.85),
    ("CC(=O)O[C@H]1CC[C@@H](c2ccncc2NC(=O)c2nc(-c3c(F)cccc3F)ccc2N)C[C@H]1N (stereo in doubt)", 0.30),
    ("C[C@H]1CN(c2ccncc2NC(=O)c2ccc(F)c(-c3ccccc3F)n2)C[C@@H](O)[C@@H]1O", 0.00),
    ("COc1ccc(F)c(-c2nc(C(=O)Nc3cnccc3[C@H]3C[C@@H](N)[C@H](O)[C@@H](C)C3)ccc2F)c1F", 0.00),
    ("C[C@H]1C[C@@H](c2ccncc2NC(=O)c2nc(C3CCCCC3)ccc2N)C[C@@H](N)[C@@H]1O (stereo in doubt)", 0.48),
    ("C[C@@H]1C[C@H](N)C[C@H](c2ccncc2NC(=O)c2ccc(F)c([C@H]3CC[C@H](O)CC3)n2)C1", 0.48),
    ("N[C@H]1CCC[C@@H](c2ccncc2NC(=O)c2ccc(F)c(-c3c(F)ccc(O)c3F)n2)C1", 0.00),
    ("C[C@@H]1CN(c2ccncc2NC(=O)c2nc(-c3c(F)cccc3F)ccc2N)C[C@@H](N)[C@H]1O", 0.30),
    ("C[C@@H]1C[C@H](N)C[C@H](c2ccncc2NC(=O)c2ccc(F)c(-c3c(F)ccc(F)c3F)n2)C1", 0.00),
    ("CCc1ccc(F)c(-c2cccc(C(=O)Nc3cnccc3[C@H]3C[C@@H](N)[C@@H](O)[C@@H](C)C3)n2)c1F", 0.00),
    ("N[C@H]1CCC[C@@H](c2ccncc2NC(=O)c2ccc(F)c([C@H]3CC[C@H](O)CC3)n2)C1", 1.04),
    ("N[C@H]1CCC[C@@H](c2ccncc2NC(=O)c2ccc(F)c(-c3cc(O)ccc3F)n2)C1", 0.00),
]
